target-system: human glucagon receptor (human, UniProt P47871 26-477)
Sequence (P47871 26-477): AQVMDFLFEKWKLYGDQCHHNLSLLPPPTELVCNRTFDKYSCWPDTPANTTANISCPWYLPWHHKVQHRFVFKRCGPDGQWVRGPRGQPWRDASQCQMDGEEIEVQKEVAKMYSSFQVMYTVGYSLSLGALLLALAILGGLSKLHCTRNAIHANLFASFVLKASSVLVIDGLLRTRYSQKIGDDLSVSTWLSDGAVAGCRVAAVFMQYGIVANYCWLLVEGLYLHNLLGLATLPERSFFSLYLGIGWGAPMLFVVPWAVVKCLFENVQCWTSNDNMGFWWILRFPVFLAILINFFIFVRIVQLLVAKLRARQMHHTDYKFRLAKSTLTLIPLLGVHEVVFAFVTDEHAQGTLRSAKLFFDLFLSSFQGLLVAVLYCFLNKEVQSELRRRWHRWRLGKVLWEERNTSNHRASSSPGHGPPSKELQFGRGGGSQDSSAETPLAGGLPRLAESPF
procedure-text: cell-based or functional assay
Where no end group is shown, it is not given here. [ ]: non-standard residue; d: D form. Aib = CC(C)(N)C(=O)O

binder	hGcgR CRE Luc EC50 (pM)
H[Aib]HGTFTSDYSIYLEKQKA[Aib]EFVQWLLEGGPSSGAPPPS-NH2 (not fully specified (residue 16); printed as H-Aib-HGTFTSDYSIYLE-K[(2S)-2-amino-6-[[(2S)-2-amino-6-[[(4S)-4-carboxy-4-(19-carboxynonadecanoylamino)butanoyl]amino]hexanoyl]amino]hexanoyl]-QKA-Aib-EFVQWLLEGGPSSGAPPPS-NH2) [Compound No. 35]	5
Y[Aib]QGTFTSDYSYLLEKQAA[Aib]EFVQWLLEGGPSSGAPPPS-NH2 (not fully specified (residue 16); printed as Y-Aib-QGTFTSDYSYLLE-K[(2S)-2-amino-6-[[(2S)-2-amino-6-[[(4S)-4-carboxy-4-(19-carboxynonadecanoylamino)butanoyl]amino]hexanoyl]amino]hexanoyl]-QAA-Aib-EFVQWLLEGGPSSGAPPPS-NH2) [Compound No. 48]	12.6
H[Aib]HGTFTSDYSYYLEKQAA[Aib]EFVQWLLEGGPSSGAPPPS-NH2 (not fully specified (residue 16); printed as H-Aib-HGTFTSDYSYYLE-K[2-[2-[2-[[2-[2-[2-[[(4S)-4-carboxy-4-(19-carboxynonadecanoylamino)butanoyl]amino]ethoxy]ethoxy]acetyl]amino]ethoxy]ethoxy]acetyl]-QAA-Aib-EFVQWLLEGGPSSGAPPPS-NH2) [Compound No. 40]	36.4
Y[Aib]QGTFTSDYSYYLEKQAA[Aib]EFVQWLLEGGPSSGAPPPS-NH2 (not fully specified (residue 16); printed as Y-Aib-QGTFTSDYSYYLE-K[(2S)-2-amino-6-[[(2S)-2-amino-6-[[(4S)-4-carboxy-4-(19-carboxynonadecanoylamino)butanoyl]amino]hexanoyl]amino]hexanoyl]-QAA-Aib-EFVQWLLEGGPSSGAPPPS-NH2) [Compound No. 47]	28.7
Y[Aib]QGTFTSDYSIYLDKQAA[Aib]KFVNWLLAGGPSSGAPPPS-NH2 (not fully specified (residue 21); printed as Y-Aib-QGTFTSDYSIYLDKQAA-Aib-K[2-[2-[2-[[2-[2-[2-[[(4S)-4-carboxy-4-(17-carboxyheptadecanoylamino)butanoyl]amino]ethoxy]ethoxy]acetyl]amino]ethoxy]ethoxy]acetyl]-FVNWLLAGGPSSGAPPPS-NH2) [Compound No. 3]	34.7
H[Aib]HGTFTSDYSILLEKQAAQEFVQWLLEGGPSSGAPPPS-OH (not fully specified (residue 16); printed as H-Aib-HGTFTSDYSILLE-K[(2S)-2-amino-6-[[(2S)-2-amino-6-[[(4S)-4-carboxy-4-(17-carboxyheptadecanoylamino)butanoyl]amino]hexanoyl]amino]hexanoyl]-QAAQEFVQWLLEGGPSSGAPPPS-OH) [Compound No. 52]	14.9
Y[Aib]QGTFTSDYSIYLEKQAA[Aib]EFVNWLLAGGPSSGAPPPS-NH2 (not fully specified (residue 16); printed as Y-Aib-QGTFTSDYSIYLE-K[(2S)-2-amino-6-[[(2S)-2-amino-6-[[(4S)-4-carboxy-4-[[4-[(19-carboxynonadecanoylamino)methyl]cyclohexanecarbonyl]amino]butanoyl]amino]hexanoyl]amino]hexanoyl]-QAA-Aib-EFVNWLLAGGPSSGAPPPS-NH2) [Compound No. 13]	157
H[Aib]HGTFTSDYSYYLEKQAA[Aib]EFVQWLLEGGPSSGAPPPS-NH2 (not fully specified (residue 16); printed as H-Aib-HGTFTSDYSYYLE-K[(2S)-2-amino-6-[[(2S)-2-amino-6-[[(4S)-4-carboxy-4-(17-carboxyheptadecanoylamino)butanoyl]amino]hexanoyl]amino]hexanoyl]-QAA-Aib-EFVQWLLEGGPSSGAPPPS-NH2) [Compound No. 32]	10.3
H[Aib]HGTFTSDYSIYLEKKYA[Aib]EFVQWLLEGGPSSGAPPPS-NH2 (not fully specified (residue 16); printed as H-Aib-HGTFTSDYSIYLE-K[(2S)-2-amino-6-[[(2S)-2-amino-6-[[(4S)-4-carboxy-4-(19-carboxynonadecanoylamino)butanoyl]amino]hexanoyl]amino]hexanoyl]-KYA-Aib-EFVQWLLEGGPSSGAPPPS-NH2) [Compound No. 30]	9.3
